Provenance of the data: the supplement of paper PMC10307832

System: SK-LU-1
Test description: relative viability (nuclei count vs DMSO), 5 days (fraction); higher = more cells survive
Condition details: first compound 8 µM
Answer each item with its documented relative viability.
Number, no unit, nothing else.

GET /values?readout=relative viability&item= CCCCCCCCCCCC1=C(O)C(=O)C=C(O)C1=O [Embelin] + Nc1nc2[nH]cc(CCc3ccc(C(=O)N[C@@H](CCC(=O)O)C(=O)O)cc3)c2c(=O)[nH]1 [Pemetrexed] (partner 0.2 µM)
0.988

Then CCCCCCCCCCCC1=C(O)C(=O)C=C(O)C1=O [Embelin] + CC1(C)CCC(c2ccc(Cl)cc2)=C(CN2CCN(c3ccc(C(=O)NS(=O)(=O)c4ccc(N[C@H](CCN5CCOCC5)CSc5ccccc5)c(S(=O)(=O)C(F)(F)F)c4)cc3)CC2)C1 [Navitoclax] (partner 0.5 µM) ?
0.832

Entry to check: CCCCCCCCCCCC1=C(O)C(=O)C=C(O)C1=O [Embelin] + CC(=O)Nc1cccc(-n2c(=O)n(C3CC3)c(=O)c3c(Nc4ccc(I)cc4F)n(C)c(=O)c(C)c32)c1 [Trametinib] (partner 0.02 µM)
0.39

Can you handle CCCCCCCCCCCC1=C(O)C(=O)C=C(O)C1=O [Embelin] + CCNC(=O)c1noc(-c2cc(C(C)C)c(O)cc2O)c1-c1ccc(CN2CCOCC2)cc1 [Luminespib] (partner 0.01 µM) next?
0.204
